Target: UniProtKB P22303
Sequence (P22303 32-614): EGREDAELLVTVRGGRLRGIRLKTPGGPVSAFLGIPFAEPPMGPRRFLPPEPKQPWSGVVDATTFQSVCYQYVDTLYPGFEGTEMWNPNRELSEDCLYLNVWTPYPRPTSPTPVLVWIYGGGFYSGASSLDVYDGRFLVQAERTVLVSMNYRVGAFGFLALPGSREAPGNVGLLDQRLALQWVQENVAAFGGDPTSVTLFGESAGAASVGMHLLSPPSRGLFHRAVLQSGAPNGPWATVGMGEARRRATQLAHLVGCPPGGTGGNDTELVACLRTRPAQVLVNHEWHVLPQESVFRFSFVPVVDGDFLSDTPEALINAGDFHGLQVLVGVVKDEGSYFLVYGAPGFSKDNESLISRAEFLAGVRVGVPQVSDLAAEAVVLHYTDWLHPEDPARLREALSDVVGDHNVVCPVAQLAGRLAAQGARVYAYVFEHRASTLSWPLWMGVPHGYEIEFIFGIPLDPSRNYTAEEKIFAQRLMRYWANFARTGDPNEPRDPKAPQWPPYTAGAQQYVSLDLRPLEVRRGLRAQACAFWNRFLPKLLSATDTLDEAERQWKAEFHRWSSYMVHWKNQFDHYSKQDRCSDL
Residues, ends and D or L forms follow the SMILES beside them.
I'd appreciate it if you could supply pIC50 values for the items below.
Give bare numbers, as −log10 of the molar value.

A selection of reference data follows.
CSCC[C@H](NC(=O)[C@@H](NC(=O)[C@H](Cc1c[nH]cn1)NC(=O)[C@@H](N)CC(C)C)[C@@H](C)O)C(=O)N[C@@H](CCC(=O)O)C(=O)N[C@@H](CC(C)C)C(=O)N[C@@H](CC(C)C)C(=O)O [LHTMELL] (H-LHTMELL-OH) :: 4.97
CC(C)C[C@H](NC(=O)[C@H](Cc1c[nH]cn1)NC(=O)[C@@H](N)Cc1c[nH]c2ccccc12)C(=O)N[C@@H](CS)C(=O)N[C@H](C(=O)N[C@@H](CC(C)C)C(=O)N[C@@H](Cc1ccccc1)C(=O)O)C(C)C [WHLCVLF] (H-WHLCVLF-OH) :: 5.82
CC[C@H](C)[C@H](NC(=O)[C@@H](N)Cc1c[nH]c2ccccc12)C(=O)NCC(=O)N[C@@H](CS)C(=O)N[C@@H](Cc1c[nH]c2ccccc12)C(=O)N[C@@H](CC(=O)O)C(=O)O [WIGCWD] (H-WIGCWD-OH) :: 5.72

Query (compound): CC[C@H](C)[C@H](NC(=O)[C@H](Cc1c[nH]c2ccccc12)NC(=O)[C@@H](N)C(C)C)C(=O)N[C@H](C(=O)NCC(=O)N[C@@H](Cc1ccccc1)C(=O)N[C@@H](CCC(=O)O)C(=O)N[C@@H](Cc1c[nH]cn1)C(=O)N[C@@H](CCSC)C(=O)O)[C@@H](C)CC [VWIIGFEHM] (H-VWIIGFEHM-OH) ; field requested: pIC50 5.41
